Data provenance is PubChem BioAssay (NCI).

- Tested on: SNB-75 CNS
- methodNotes: NCI tumour cell line growth inhibition, 48 h
Where a SMILES comes first, the peptide text is derived from it. [ ]: non-standard residue; d: D form. The star is where a group is joined. ξ: configuration not given here. ξF = NC(Cc1ccccc1)C(=O)O; Cbz = O=C(OCc1ccccc1)*; Aib = CC(C)(N)C(=O)O; NHNH2 = NN*
recordedMetric: TGI

Here are 5 molecules together with their reported answers.
| molecule | endpointResult |
| --- | --- |
| CC(=O)Nc1ccc2c(c1)C(c1ccccc1Cl)=Nc1c(n[nH]c1C)N2 | 6.24 µM |
| CC(=O)Nc1c(S(=O)(=O)c2ccccc2)c(C)c(C)n1CCN(C)C | > 100 µM |
| CC(C)(O)[C@@H]1CC[C@@]2(C)CCCC(O)C2(O)C1 (some centres not stated) | > 100 µM |
| COc1cc(OC)c2c(c1)OC(c1ccccc1)CC2=O (configuration not stated) | > 10 µM |
| O=C(Nc1ccc2[nH]nc(-c3ccncc3)c2c1)[C@@H]1CCN(CC(=O)N2CCN(c3ccc(-c4ncccn4)cc3)CC2)C1 | > 90.8 µM |

Consider the following items and state reported TGI for each.
1. O=C(NCCCCCCCCCCCCNC(=O)c1cccc2ccccc12)c1cccc2ccccc12
2. CCOC(=O)c1c[nH]c2c(Sc3ccccc3)nccc2c1=O

Response:
> 54.6 µM
> 100 µM

I would be grateful if you could provide TGI for each of the following entries.
1. CC(C)OP(=O)(OC(C)C)/C(Cl)=N/Nc1ccc([N+](=O)[O-])cc1
2. O=c1c2c(=NCCN3CCCC3)cc3c(=O)n(CCCN4CCOCC4)c(=O)c4c(-c5ccc(CN6CCCC6)cc5)cc(c(O)n1CCCN1CCOCC1)c2c4-3
3. CCc1n[nH]c(=O)n1/N=C/c1ccccc1O
4. CC(C)(NC(=O)OCc1ccccc1)C(=O)NC(Cc1ccccc1)C(=O)NN (configuration not stated) (Cbz-[Aib]-[ξF]-NHNH2)
5. COC(=O)CC(NC(=O)OCc1ccccc1)C(C(C)=O)C(=O)OCc1ccccc1 (configuration not stated)

Response:
1. > 100 µM
2. 0.228 µM
3. > 100 µM
4. > 100 µM
5. 30.8 µM

* * *

Can you tell me TGI for the items I'm about to list?
- Test system: KM12 colon
- methodNotes: NCI tumour cell line growth inhibition, 48 h

Record excerpt, results attached:
| molecule | endpointResult |
| --- | --- |
| O=c1c2c(=NCCN3CCCC3)cc3c(=O)n(CCCN4CCOCC4)c(=O)c4c(-c5ccc(CN6CCCC6)cc5)cc(c(O)n1CCCN1CCOCC1)c2c4-3 | 0.841 µM |
| Cc1cccc(N(C)C(=O)[C@@H]2[C@H](O)CCN2c2nc(C)cc(C(F)(F)F)c2C#N)c1 | > 100 µM |
| COc1ccc(N=Nc2c(C)c(C#N)c(=S)n(C3OC(CO)C(O)C(O)C3O)c2-c2ccccc2)cc1 (configuration not stated) | > 100 µM |
| COc1ccc(C(=O)C2=NON3OC23C(=O)c2ccc(OC)cc2)cc1 (configuration not stated) | 36.6 µM |
| O=c1cc(N=Nc2ccc(Br)cc2)[nH]c(=S)[nH]1 | > 100 µM |

Quick one: give me TGI for each item below, same order please.
1. CCOC(=O)c1cc(C(=O)c2cc(OC)c(OC)c(OC)c2)n2ncccc12
2. CC[C@H](C)[C@H]1NC(=O)[C@@H](NC(=O)[C@@H](CC(C)C)N(C)C(=O)C2CCCN2C(=O)[C@H](C)O)[C@@H](C)OC(=O)[C@H](Cc2ccc(OC)cc2)N(C)C(=O)[C@@H]2CCCN2C(=O)[C@H](CCCCNC(=O)OCc2ccccc2)NC(=O)[C@H](C)C(=O)[C@H](C(C)C)OC(=O)C[C@@H]1O (some centres not stated)

Response:
["> 100 µM", "19.4 µM"]

* * *

For each entry below, report its TGI value.
- Test system: HS 578T breast
- methodNotes: NCI tumour cell line growth inhibition, 48 h
One number for each entry, in µM.

| compound | TGI (µM) |
| --- | --- |
| COc1cc2c(cc1OC)[C@@H](Nc1ccc(C#N)cc1)C1COC(=O)[C@@H]1C2c1cc(OC)c(O)c(OC)c1 (stereo not given in full) | 7.54 |

Attention now turns to another entry.
Request: Give the reported TGI for COC(=O)/C=C1\C(=O)N(C(C)=O)c2ccc(Br)cc21 (system: HS 578T breast).
Response: 36.8

* * *

- Tested on: U251 CNS
- methodNotes: NCI tumour cell line growth inhibition, 48 h
Task for the reader: assign each of the following compounds its reported GI50.

Provide GI50 values for the following items, in order.
1. CS(=O)(=O)Nc1cncc(-c2ccc3ncnc(Nc4ccc(F)c(Cl)c4)c3c2)c1
2. CCOC(=O)/C(=C/N1CCN(C(=O)c2ccco2)C1=S)C(=O)c1ccccc1
3. CCC(C)[C@H]1O[C@]2(CC[C@@H]1C)C[C@@H]1C[C@@H](C/C=C(\C)[C@@H](OC3C[C@H](OC)C(O[C@H]4C[C@H](OC)[C@@H](O)[C@H](C)O4)[C@H](C)O3)[C@@H](C)/C=C/C=C3\CO[C@@H]4[C@H](O)C(C)=C[C@@H](C(=O)O1)[C@]34O)O2 (some centres undefined)

Response:
["3.03 µM", "11.5 µM", "2.21 µM"]

// each compound listed below needs its GI50
1. CCN1C/C(=C\c2cc(OC)c(OC)cc2OC)C(=O)/C(=C/c2cc(OC)c(OC)cc2OC)C1
2. CC(C)(C)c1ccc(S(=O)(=O)Oc2ccc3c4c(c(=O)oc3c2)CCCCC4)cc1

Response:
3.08 µM
12.5 µM

For every item in the list below, what is its measured GI50?
1. Fc1cccc(COc2ccc(Nc3ncnc4sc(-c5cccs5)cc34)cc2Cl)c1
2. CC(N)C(Cc1ccc(Cl)cc1)c1ccc(Cl)cc1 (centres undefined)
3. CCSCC1CC(O)(c2ccccc2)CC(c2ccc(F)cc2)O1 (centres undefined)
4. COc1cc(/C=C\c2cc(OC)c(OC)c(OC)c2)cc(N/C=C\C(=O)c2ccc(OC(F)(F)F)cc2)c1OC

Response:
1. 5.75 µM
2. 12.3 µM
3. 1.63 µM
4. 3.46 µM

* * *

- Tested on: BT-549 breast
- methodNotes: NCI tumour cell line growth inhibition, 48 h
recordedMetric: TGI

Quick one: give me TGI for each item below, same order please.
1. O=C(O[C@@H](/C=C/c1ccccc1)P1(=O)N(Cc2ccccc2)[C@H]2CCCC[C@@H]2N1Cc1ccccc1)c1ccccc1
2. CC(=O)O[C@H]1C(=O)[C@@]2(C)C(C(OC(=O)c3ccccc3)[C@]3(O)C[C@H](OC(=O)C(OC(=O)CCCC(=O)NCCCN(C)C)C(NC(=O)c4ccccc4)c4ccccc4)C(C)=C1C3(C)C)C1(OC(C)=O)COC1C[C@@H]2O (stereo partly drawn)
3. CCCCCCCCCCCCOC1C(CNC(=O)C2OC3OC(C)(C)OC3C2NC(=O)Nc2ccc(CC(=O)OC)cc2)OC2OC(C)(C)OC21 (stereo not drawn)

Response:
1: > 100 µM; 2: 31.9 µM; 3: > 100 µM

* * *

- Tested on: M19-MEL melanoma
- methodNotes: NCI tumour cell line growth inhibition, 48 h
recordedMetric: TGI

Some solved entries appear below for comparison.
| molecule | assayedTarget | TGI |
| --- | --- | --- |
| C[C@@H](NC1CCCC[C@H]1O)c1ccccc1 (some centres undefined) | M19-MEL melanoma | > 100 µM |
| COc1ccc(NC(=O)C(=O)c2c(O)c3ccc(O)cc3oc2=O)c([N+](=O)[O-])c1 | M19-MEL melanoma | > 100 µM |
| COc1cc2c(cc1OC)[C@@H](Nc1ccc(C#N)cc1)C1COC(=O)[C@@H]1C2c1cc(OC)c(O)c(OC)c1 (some centres undefined) | M19-MEL melanoma | 95 µM |

Now, please, on to the next molecule.
Request: Fill blank: measured TGI of the molecule CC1=Nc2ccccc2S/C1=C(/C)NNS(=O)(=O)c1ccc(C)cc1 is ____.
Response: > 100 µM

* * *

- Tested on: K-562 leukemia
- methodNotes: NCI tumour cell line growth inhibition, 48 h; in the data active = GI50 below about 0.43 µM; inactive = the rest
Pick one: 1 (yes) for active, 0 (no) for inactive

Reference set (3 entries):
| compound | className |
| --- | --- |
| COc1ccc(C(c2cc(OC)c(OC)c(OC)c2)n2ccnc2)cc1O (centres undefined) | 1 (yes) |
| COc1ccc(/C=C/C(=O)c2cc(OC)c(OC)c(OC)c2)cc1OCC(=O)Nc1nc2ccc(OC(F)(F)F)cc2s1 | 0 (no) |
| C=C1CC[C@@H]2[C@](C)(COC(C)=O)[C@H](OC(C)=O)CC[C@@]2(C)[C@@H]1CC(Nc1ccc(S(=O)(=O)NC(C)=O)cc1)C1=CCOC1=O (some centres undefined) | 0 (no) |

Now look at this entry.
Request: What is the recorded call for this compound in the test? O=C(Cc1ccc(/C=C/C(=O)c2ncc[nH]2)cc1)Nc1ccc(F)cc1
Response: 0 (no)
